# studyTarget: TBG (wild-type, native, intact reactive loop) (Homo sapiens)
# Sequence (P05543 21-415): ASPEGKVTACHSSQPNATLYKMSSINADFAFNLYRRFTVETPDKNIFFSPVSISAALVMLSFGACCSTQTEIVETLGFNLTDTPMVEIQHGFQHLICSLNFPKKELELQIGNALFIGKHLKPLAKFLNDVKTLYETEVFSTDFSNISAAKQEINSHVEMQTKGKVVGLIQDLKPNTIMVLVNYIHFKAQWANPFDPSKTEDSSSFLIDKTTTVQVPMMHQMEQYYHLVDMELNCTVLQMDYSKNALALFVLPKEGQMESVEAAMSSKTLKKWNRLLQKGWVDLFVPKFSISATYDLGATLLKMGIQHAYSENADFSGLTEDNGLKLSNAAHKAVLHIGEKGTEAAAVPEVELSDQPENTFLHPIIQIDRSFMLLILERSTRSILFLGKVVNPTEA
# experimentNotes: direct fluorescence titration of TBG into fluorophore
metricName: Kd

- compound: "O=C(N[C@@H](Cc1cc(I)c(Oc2cc(I)c(O)c(I)c2)c(I)c1)C(=O)O)c1ccc2c(c1)C(=O)OC21c2ccc(O)cc2Oc2cc(O)ccc21 [T4–5-CF]"
  metricName: "Kd"
  dataValue: "< 100 pM"
